# run parameters: in chloroform, 303.65 K
outcome measure: solubility (mole fraction)

1. CC(C)COc1ccc(B(O)O)cc1    0.0304

====

# run parameters: in methylcyclohexane, 329.05 K
outcome measure: solubility (mole fraction)

1) CC(C)COc1ccccc1B(O)O    0.198

====

# run parameters: in acetone, 315.65 K
outcome measure: solubility (mole fraction)

1. CC(C)COc1ccccc1B(O)O    0.411

====

# run parameters: in methylcyclohexane, 321.95 K
outcome measure: solubility (mole fraction)

1. CC(C)COc1ccccc1B(O)O    0.0885

====

# run parameters: in dipropyl ether, 330.15 K
outcome measure: solubility (mole fraction)

1) CC(C)COc1ccccc1B(O)O    0.463
